Listed compounds paired with reported inhibition at 10 µM
target-or-test-system: 5-HT2C (Homo sapiens)
Sequence (P28335 33-458, species assumed): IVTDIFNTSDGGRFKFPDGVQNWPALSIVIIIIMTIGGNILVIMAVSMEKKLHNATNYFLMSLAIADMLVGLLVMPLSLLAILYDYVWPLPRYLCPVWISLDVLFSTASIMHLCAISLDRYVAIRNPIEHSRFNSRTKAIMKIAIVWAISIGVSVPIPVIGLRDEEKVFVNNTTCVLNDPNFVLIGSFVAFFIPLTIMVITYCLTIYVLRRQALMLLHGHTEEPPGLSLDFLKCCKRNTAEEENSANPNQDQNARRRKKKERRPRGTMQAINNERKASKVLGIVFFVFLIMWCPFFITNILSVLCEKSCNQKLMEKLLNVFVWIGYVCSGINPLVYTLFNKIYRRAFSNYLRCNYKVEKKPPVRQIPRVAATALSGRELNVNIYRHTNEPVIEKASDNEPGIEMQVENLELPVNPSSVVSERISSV
method-description: Primary screening: inhibition of radioligand binding at 5-HT2C (NIMH PDSP)
details: read-out: % Inhibition of radioligand binding 5-HT2C
Write it as a number; the unit % goes unstated.

Note down inhibition at 10 µM recorded for O=c1cc(CCc2ccco2)oc2cccc(O)c12 [Compound 22f] 24.2

// fetch inhibition at 10 µM given entry O=c1cc(CCc2cccc(O)c2)oc2cc(O)ccc12 [Compound 22m] 0

Return the recorded inhibition at 10 µM value; entry: O=c1cc(CCc2ccccc2)oc2cc(O)ccc12 [Compound 22k, 7-hydroxy-2-phenethyl-4H-chromen-4-one] 33.7
